Target: Acetylcholinesterase (Rattus norvegicus)
Sequence (P37136 whole entry): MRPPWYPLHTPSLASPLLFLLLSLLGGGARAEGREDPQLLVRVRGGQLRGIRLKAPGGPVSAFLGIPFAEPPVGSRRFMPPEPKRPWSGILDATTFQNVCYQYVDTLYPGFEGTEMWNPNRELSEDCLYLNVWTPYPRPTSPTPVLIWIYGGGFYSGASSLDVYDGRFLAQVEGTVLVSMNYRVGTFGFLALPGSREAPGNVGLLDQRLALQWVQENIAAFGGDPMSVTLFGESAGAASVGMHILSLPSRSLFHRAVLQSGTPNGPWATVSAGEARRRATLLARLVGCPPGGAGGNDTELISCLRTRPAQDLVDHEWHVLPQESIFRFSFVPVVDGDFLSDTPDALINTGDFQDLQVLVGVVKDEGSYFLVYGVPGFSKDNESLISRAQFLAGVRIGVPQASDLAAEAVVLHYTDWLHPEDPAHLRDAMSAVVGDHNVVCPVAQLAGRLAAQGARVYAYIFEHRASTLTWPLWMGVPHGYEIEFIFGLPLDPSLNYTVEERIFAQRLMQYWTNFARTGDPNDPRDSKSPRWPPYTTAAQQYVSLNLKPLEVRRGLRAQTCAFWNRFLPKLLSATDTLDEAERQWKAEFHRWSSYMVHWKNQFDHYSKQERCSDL
// classify: if (IC50 < 4 µM) True else False

{"molecule": "C=CCC12CCN(C)C1N(C)c1ccc(OC(=O)Nc3ccc(F)cc3)cc12 (racemic)", "measurement-target": "Acetylcholinesterase (Rattus norvegicus)", "label": "False"}
{"molecule": "C=CCC12CCN(C)C1N(C)c1ccc(OC(=O)Nc3ccc(Br)cc3)cc12 (racemic)", "measurement-target": "Acetylcholinesterase (Rattus norvegicus)", "label": "False"}
{"molecule": "C=CCC12CC(=O)N(C)C1N(C)c1ccc(OC(=O)Nc3ccccc3)cc12 (racemic)", "measurement-target": "Acetylcholinesterase (Rattus norvegicus)", "label": "False"}
{"molecule": "CCCC12CCN(C)C1N(C)c1ccc(OC(=O)Nc3ccccc3)cc12 (racemic)", "measurement-target": "Acetylcholinesterase (Rattus norvegicus)", "label": "True"}
{"molecule": "C=CCC12CCN(C)C1N(C)c1ccc(OC(=O)Nc3ccccc3)cc12 (racemic)", "measurement-target": "Acetylcholinesterase (Rattus norvegicus)", "label": "True"}
{"molecule": "C=CC12CCN(C)C1N(C)c1ccc(OC(=O)Nc3ccccc3)cc12 (racemic)", "measurement-target": "Acetylcholinesterase (Rattus norvegicus)", "label": "True"}
{"molecule": "CCC(C)(C)C12CCN(C)C1N(C)c1ccc(OC(=O)Nc3ccccc3)cc12 (racemic)", "measurement-target": "Acetylcholinesterase (Rattus norvegicus)", "label": "False"}
{"molecule": "C=CCC12CCN(C)C1N(C)c1ccc(OC(=O)Nc3ccccc3F)cc12 (racemic)", "measurement-target": "Acetylcholinesterase (Rattus norvegicus)", "label": "True"}
{"molecule": "CCC(C)(C)[C@@]12CCN(C)[C@@H]1N(C)c1ccc(OC(=O)Nc3ccccc3)cc12", "measurement-target": "Acetylcholinesterase (Rattus norvegicus)", "label": "False"}

====

Target: Acetylcholinesterase (Rattus norvegicus, UniProt P37136)
Sequence (P37136 whole entry): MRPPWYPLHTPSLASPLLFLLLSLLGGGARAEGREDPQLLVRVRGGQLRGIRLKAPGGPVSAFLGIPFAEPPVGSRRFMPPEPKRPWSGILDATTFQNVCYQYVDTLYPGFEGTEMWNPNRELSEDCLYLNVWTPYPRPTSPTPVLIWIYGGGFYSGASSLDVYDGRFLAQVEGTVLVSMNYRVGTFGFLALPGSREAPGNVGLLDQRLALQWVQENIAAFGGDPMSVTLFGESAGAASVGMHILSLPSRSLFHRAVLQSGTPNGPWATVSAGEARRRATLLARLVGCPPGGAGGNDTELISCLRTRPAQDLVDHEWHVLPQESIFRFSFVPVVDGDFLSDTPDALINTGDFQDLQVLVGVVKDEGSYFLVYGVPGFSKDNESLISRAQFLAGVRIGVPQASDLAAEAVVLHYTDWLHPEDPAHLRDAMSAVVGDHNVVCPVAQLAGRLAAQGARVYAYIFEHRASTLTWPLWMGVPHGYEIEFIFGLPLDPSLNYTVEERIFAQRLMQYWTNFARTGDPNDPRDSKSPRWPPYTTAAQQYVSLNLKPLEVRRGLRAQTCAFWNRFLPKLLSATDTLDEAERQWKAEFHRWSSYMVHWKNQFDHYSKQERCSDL
Please respond with MET when measured IC50 is strictly beneath 400 nM, and with NOT MET in all other cases.

{"compound": "C=CC[C@]12CCN(C)[C@@H]1N(C)c1ccc(OC(=O)Nc3ccccc3)cc12", "label": "NOT MET"}
{"compound": "C=C[C@@]12CCN(C)[C@@H]1N(C)c1ccc(OC(=O)Nc3ccccc3)cc12", "label": "NOT MET"}
{"compound": "CC[C@]12CCN(C)[C@@H]1N(C)c1ccc(OC(=O)Nc3ccccc3)cc12", "label": "MET"}
{"compound": "C=CCC12CCN(C)C1N(C)c1ccc(OC(=O)Nc3ccc(C(C)C)cc3)cc12 (racemic)", "label": "NOT MET"}
{"compound": "CN1CC[C@@]2(C)c3cc(OC(=O)Nc4ccccc4)ccc3N(C)C12 (stereo partly specified)", "label": "MET"}

====

Listing of recorded pIC50 by entry.
biological target: Butyrylcholinesterase (Rattus norvegicus, UniProt Q9JKC1); assay: Inhibition of BuChE in Wistar rat plasma using acetylthiocholine iodide as substrate after 0.5 hrs by Ellman's method
Sequence (Q9JKC1 whole entry): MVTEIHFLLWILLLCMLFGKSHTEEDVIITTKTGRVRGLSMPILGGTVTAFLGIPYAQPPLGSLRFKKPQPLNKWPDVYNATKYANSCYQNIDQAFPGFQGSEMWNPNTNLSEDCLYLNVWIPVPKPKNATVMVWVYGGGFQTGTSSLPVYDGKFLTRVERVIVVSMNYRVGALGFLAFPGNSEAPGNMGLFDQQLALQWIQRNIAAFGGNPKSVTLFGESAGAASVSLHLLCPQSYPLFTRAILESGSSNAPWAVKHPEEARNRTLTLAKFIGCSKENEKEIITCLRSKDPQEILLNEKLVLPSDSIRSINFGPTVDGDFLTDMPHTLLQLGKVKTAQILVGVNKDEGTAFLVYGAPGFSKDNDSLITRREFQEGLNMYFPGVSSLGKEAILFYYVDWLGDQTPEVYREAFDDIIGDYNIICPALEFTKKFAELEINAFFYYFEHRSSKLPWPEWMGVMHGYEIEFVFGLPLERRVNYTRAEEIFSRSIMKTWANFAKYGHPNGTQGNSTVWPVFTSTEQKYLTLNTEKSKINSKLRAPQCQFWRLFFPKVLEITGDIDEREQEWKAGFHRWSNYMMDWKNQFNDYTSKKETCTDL
pIC50: −log10 of the molar value.

{"compound": "C=C[C@@]12CCN(C)[C@@H]1N(C)c1ccc(OC(=O)Nc3ccccc3)cc12", "bound-sign": "=", "pIC50": 4.38}
{"compound": "C=CC[C@]12CCN(C)[C@@H]1N(C)c1ccc(OC(=O)Nc3ccccc3)cc12", "bound-sign": "<", "pIC50": 4.00}
{"compound": "CCCC12CCN(C)C1N(C)c1ccc(OC(=O)Nc3ccccc3)cc12 (racemic)", "bound-sign": "<", "pIC50": 4.00}
{"compound": "C=CCC12CC(=O)N(C)C1N(C)c1ccc(OC(=O)Nc3ccccc3)cc12 (racemic)", "bound-sign": "=", "pIC50": 4.19}
{"compound": "C=CC12CCN(C)C1N(C)c1ccc(OC(=O)Nc3ccccc3)cc12 (racemic)", "bound-sign": "<", "pIC50": 4.52}

====

target: Butyrylcholinesterase (Rattus norvegicus); test: Inhibition of BuChE in Wistar rat plasma using acetylthiocholine iodide as substrate after 0.5 hrs by Ellman's method

{"compound": "C=CCC12CCN(C)C1N(C)c1ccc(OC(=O)Nc3ccc(C(C)C)cc3)cc12 (racemic)", "IC50": "> 10 µM"}
{"compound": "C=CCC12CCN(C)C1N(C)c1ccc(OC(=O)Nc3ccc(Br)cc3)cc12 (racemic)", "IC50": "> 10 µM"}
{"compound": "CCC(C)(C)C12CCN(C)C1N(C)c1ccc(OC(=O)Nc3ccccc3)cc12 (racemic)", "IC50": "> 100 µM"}
{"compound": "C=CCC12CCN(C)C1N(C)c1ccc(OC(=O)Nc3ccc(F)cc3)cc12 (racemic)", "IC50": "> 100 µM"}
{"compound": "CCC(C)(C)[C@@]12CCN(C)[C@@H]1N(C)c1ccc(OC(=O)Nc3ccccc3)cc12", "IC50": "> 100 µM"}
{"compound": "C=CCC12CCN(C)C1N(C)c1ccc(OC(=O)Nc3ccccc3)cc12 (racemic)", "IC50": "> 100 µM"}
